# Tested on: Staphylococcus aureus NCTC 10788
Measurement type: MIC
Please make sure the unit comes right after the number.

stdin: Entry under review: `CC[C@H](C)[C@@H]1NC(=O)[C@H](C)NC(=O)[C@@H](NC(=O)[C@H](Cc2ccccc2)NC(=O)[C@H](Cc2c[nH]c3ccccc23)NC(=O)[C@H](CCCCN)NC(=O)[C@H](Cc2c[nH]c3ccccc23)NC(=O)[C@@H]2CCCN2C(=O)[C@H](CC(C)C)NC(=O)[C@H](Cc2ccccc2)NC(=O)[C@@H](N)CCCCN)CSSC[C@@H](C(=O)O)NC(=O)[C@H](CCCCN)NC(=O)[C@H](CCCCN)NC(=O)[C@H]([C@@H](C)O)NC1=O` . Reported MIC?
stdout: 8 µM

* * *

What MIC was measured for each of the following?
# Test system: Escherichia coli K88

Here's what some known entries look like.
Smiles representation	Measurement type	Value observed
CC(C)C[C@H](NC(=O)[C@H](Cc1c[nH]c2ccccc12)NC(=O)[C@H](C)NC(=O)[C@H](CCCCN)NC(=O)[C@H](C)NC(=O)[C@H](C)N)C(=O)N[C@@H](CCCCN)C(=O)N[C@@H](CC(C)C)C(=O)N[C@@H](Cc1c[nH]c2ccccc12)C(=O)N[C@@H](C)C(=O)N[C@@H](CCCCN)C(=O)N[C@@H](C)C(=O)N[C@@H](C)C(N)=O	MIC	8 µM
CC[C@H](C)[C@H](NC(=O)[C@H](CCCN=C(N)N)NC(=O)[C@H](C)NC(=O)[C@H](C)N)C(=O)N[C@H](C(=O)N[C@@H](CC(C)C)C(=O)N[C@@H](CCCN=C(N)N)C(=O)N[C@@H](CC(N)=O)C(=O)N[C@@H](CCCN=C(N)N)C(=O)N[C@@H](Cc1ccccc1)C(=O)N[C@@H](CCCN=C(N)N)C(N)=O)[C@@H](C)CC	MIC	≥ 32 µM
CC(C)C[C@H](NC(=O)[C@H](CCCN=C(N)N)NC(=O)[C@H](Cc1c[nH]c2ccccc12)NC(=O)[C@H](CCCN=C(N)N)NC(=O)[C@H](Cc1c[nH]c2ccccc12)NC(=O)[C@H](Cc1c[nH]c2ccccc12)NC(=O)[C@H](Cc1c[nH]c2ccccc12)NC(=O)[C@H](CCCN=C(N)N)NC(=O)[C@H](Cc1c[nH]c2ccccc12)NC(=O)[C@H](CCCN=C(N)N)NC(=O)CN)C(N)=O	MIC	2 µM

Each molecule below has a reported value. Please supply its MIC.
1. CC[C@H](C)[C@H](NC(=O)[C@H](Cc1c[nH]c2ccccc12)NC(=O)[C@H](CCCCN)NC(=O)[C@H](CC(C)C)NC(=O)[C@@H](NC(=O)[C@H](CCCCN)NC(=O)CNC(=O)[C@@H](NC(=O)[C@H](CCCCN)NC(=O)[C@H](Cc1c[nH]c2ccccc12)NC(=O)[C@H](CC(C)C)NC(=O)[C@@H](N)CCCN=C(N)N)[C@@H](C)CC)C(C)C)C(N)=O
2. C[C@H](NC(=O)[C@H](Cc1c[nH]c2ccccc12)NC(=O)[C@H](Cc1c[nH]c2ccccc12)NC(=O)[C@H](CCCN=C(N)N)NC(=O)[C@H](CCCN=C(N)N)NC(=O)[C@H](Cc1c[nH]c2ccccc12)NC(=O)[C@H](CCCN=C(N)N)NC(=O)[C@H](CCCN=C(N)N)NC(=O)[C@H](Cc1c[nH]c2ccccc12)NC(=O)[C@H](Cc1c[nH]c2ccccc12)NC(=O)CN)C(N)=O
3. CC[C@H](C)[C@H](NC(=O)[C@@H]1CCCN1C(=O)[C@H](CCCN=C(N)N)NC(=O)[C@@H]1CCCN1C(=O)[C@H](CCCN=C(N)N)NC(=O)[C@@H]1CCCN1C(=O)[C@H](CC(C)C)NC(=O)[C@H](Cc1ccc(O)cc1)NC(=O)[C@@H]1CCCN1C(=O)[C@@H]1CCCN1C(=O)[C@H](CCCCN)NC(=O)[C@H](CC(=O)O)NC(=O)[C@@H](N)C(C)C)C(=O)N[C@@H](CCCN=C(N)N)C(=O)N[C@@H](CCCN=C(N)N)C(=O)N1CCC[C@H]1C(=O)NCC(=O)NCC(=O)N[C@@H](CCCN=C(N)N)C(N)=O
4. C[C@H](NC(=O)[C@H](CCCN=C(N)N)NC(=O)[C@H](Cc1c[nH]c2ccccc12)NC(=O)[C@H](CCCN=C(N)N)NC(=O)[C@H](Cc1c[nH]c2ccccc12)NC(=O)[C@H](Cc1c[nH]c2ccccc12)NC(=O)[C@H](Cc1c[nH]c2ccccc12)NC(=O)[C@H](CCCN=C(N)N)NC(=O)[C@H](Cc1c[nH]c2ccccc12)NC(=O)[C@@H](N)CCCN=C(N)N)C(N)=O

stdout:
["1 µM", "2 µM", "2 µM", "2 µM"]

* * *

What MIC was measured for each of the following?
# Tested on: Staphylococcus aureus AB94004
Numbers only, in µM.

Here's what some known entries look like.
Smiles representation	Measurement type	Value observed
CC[C@H](C)[C@H](NC(=O)[C@H](CC(C)C)NC(=O)[C@H](CCCCN)NC(=O)[C@H](CC(C)C)NC(=O)[C@H](C)NC(=O)CNC(=O)[C@H](CCCCN)NC(=O)[C@H](C)NC(=O)[C@H](CC(C)C)NC(=O)[C@H](C)NC(=O)CNC(=O)[C@H](Cc1c[nH]c2ccccc12)NC(=O)[C@@H](N)Cc1ccccc1)C(=O)N1CCC[C@H]1C(=O)N[C@@H](CO)C(=O)N[C@@H](CC(C)C)C(=O)N[C@H](C(=O)N[C@@H](CO)C(=O)N[C@@H](CO)C(=O)N[C@@H](Cc1ccccc1)C(=O)N[C@H](C(N)=O)[C@@H](C)O)C(C)C	MIC	6.9
CC[C@H](C)[C@H](NC(=O)[C@H](CCCN=C(N)N)NC(=O)[C@H](CCCCN)NC(=O)[C@@H](NC(=O)[C@@H](N)Cc1ccccc1)[C@@H](C)CC)C(=O)N[C@@H](C)C(=O)N[C@@H](CCCN=C(N)N)C(=O)N[C@@H](CC(C)C)C(=O)N[C@@H](CC(C)C)C(=O)N[C@@H](CCCN=C(N)N)C(=O)N[C@@H](CCCCN)C(=O)N[C@H](C(=O)N[C@@H](Cc1ccccc1)C(N)=O)[C@@H](C)CC	MIC	1.87
CC[C@H](C)[C@H](N)C(=O)N[C@@H](CC(C)C)C(=O)NCC(=O)N[C@@H](CCCCN)C(=O)N[C@H](C(=O)N[C@@H](Cc1c[nH]c2ccccc12)C(=O)N[C@@H](CCCCN)C(=O)NCC(=O)N[C@H](C(=O)N[C@@H](CCCCN)C(=O)N[C@@H](CC(N)=O)C(=O)N[C@H](C(=O)N[C@@H](CC(C)C)C(N)=O)[C@@H](C)CC)[C@@H](C)CC)[C@@H](C)CC	MIC	12

Now examine the next entry.
stdin: Entry under review: `CC[C@H](C)[C@H](NC(=O)[C@H](C)NC(=O)CNC(=O)[C@@H]1CCCN1C(=O)[C@@H](NC(=O)[C@H](CC(C)C)NC(=O)CNC(=O)[C@H](Cc1c[nH]c2ccccc12)NC(=O)[C@H](CC(C)C)NC(=O)[C@@H](N)Cc1ccccc1)[C@@H](C)CC)C(=O)N[C@@H](CO)C(=O)N[C@@H](C)C(=O)N[C@H](C(=O)N[C@H](C(=O)N[C@@H](CO)C(=O)N[C@@H](CC(C)C)C(=O)N[C@H](C(=O)N[C@@H](CCCCN)C(=O)N[C@@H](CCCCN)C(N)=O)[C@@H](C)CC)[C@@H](C)O)C(C)C` . Reported MIC?
stdout: 2.48

* * *

# Test system: Enterobacter cloacae beta-12
What MIC was measured for each of the following?

Smiles representation	Assayed system	MIC
CC[C@H](C)[C@H](NC(=O)CNC(=O)[C@H](CO)NC(=O)[C@H](CC(C)C)NC(=O)[C@@H](NC(=O)[C@H](CCCCN)NC(=O)CNC(=O)[C@@H](NC(=O)[C@H](CC(C)C)NC(=O)[C@@H]1CCCN1C(=O)[C@H](CC(C)C)NC(=O)[C@@H](N)Cc1ccccc1)[C@@H](C)CC)C(C)C)C(=O)N[C@@H](CC(C)C)C(N)=O	Enterobacter cloacae beta-12	≥ 128 µM
CC(C)C[C@H](NC(=O)[C@H](C)NC(=O)CNC(=O)[C@H](CC(C)C)NC(=O)[C@@H](N)Cc1ccccc1)C(=O)N[C@@H](Cc1c[nH]c2ccccc12)C(=O)N[C@@H](CCCCN)C(=O)N[C@H](C(=O)N[C@@H](C)C(=O)N[C@@H](CCCCN)C(=O)N[C@@H](CCCCN)C(=O)N[C@H](C(=O)N[C@@H](Cc1ccccc1)C(N)=O)C(C)C)C(C)C	Enterobacter cloacae beta-12	6.3 µM

Now examine the next entry.
stdin: Entry under review: `CC(C)C[C@H](NC(=O)[C@H](C)NC(=O)CNC(=O)[C@H](CC(C)C)NC(=O)[C@@H](N)CCCCN)C(=O)N[C@@H](Cc1c[nH]c2ccccc12)C(=O)N[C@@H](CC(N)=O)C(=O)N[C@H](C(=O)N[C@@H](C)C(=O)N[C@@H](CCCCN)C(=O)N[C@@H](CO)C(=O)N[C@@H](CCCCN)C(=O)N[C@@H](Cc1ccccc1)C(N)=O)C(C)C` . Reported MIC?
stdout: ≥ 50 µM
